Give measured Inhibition (%) of mushroom tyrosinase for each item. Keep answers brief.
System: tyrosinase from mushroom
Test: Mushroom tyrosinase activity
Format: biochemical
Conditions: Substrate: L-Tyrosine, 30 µM
Procedure: Tyrosinase activities using L-tyrosine or L-DOPA as a substrate were determined according to the protocols described previously. Briefly, samples, L-tyrosine (2.5 mM, or L-DOPA, 3.0 mM), mushroom tyrosinase (46 units/mL), and phosphate buffer were mixed in a 96-well plate and incubated at 25 °C. (L-tyrosine; 30 min, L-DOPA; 5 min). The absorbance was then measured at 492 nm.
Answers are plain numbers, in %.

Worked set:
Compound	Unit	Recorded result
CCCCCCOC1=C(OCC(O)CO)[C@@H]([C@@H](O)CO)OC1=O (stereo partly shown) [compound 6, 3-O-(2,3-dihydroxypropyl)-2-O-hexyl-AsA]	%	−1.5
CCCCCCCCCCCCCCOC1=C(OCC(O)CO)[C@@H]([C@@H](O)CO)OC1=O (stereo partly shown) [compound 14]	%	−9.7

Can you give me Inhibition (%) of mushroom tyrosinase for all of these, one by one?
1. CCCCCCCOC1=C(OCC(O)CO)C(=O)O[C@@H]1[C@@H](O)CO (stereo partly shown) [compound 21, 2-O-(2,3-dihydroxypropyl)-3-O-heptyl-AsA]
2. CCCCCCCCCCCCOC1=C(OCC(O)CO)C(=O)O[C@@H]1[C@@H](O)CO (stereo partly shown) [compound 26]

1. −9.2
2. −0.5

----------
tested on: tyrosinase from mushroom; assay: Mushroom tyrosinase activity; type: biochemical; settings: Substrate: L-Tyrosine, 10 µM
Give measured Inhibition (%) of mushroom tyrosinase for each item. Keep answers brief.
One number for each entry, in %.

Compound	Target under test	Assay endpoint	Unit	Recorded result
CCCCCCCCCCCCCOC1=C(OCC(O)CO)C(=O)O[C@@H]1[C@@H](O)CO (stereo partly shown)	tyrosinase from mushroom	Inhibition (%) of mushroom tyrosinase	%	−3.3

Can you give me Inhibition (%) of mushroom tyrosinase for all of these, one by one?
1. CCCCCCCCCCCCOC1=C(OCC(O)CO)C(=O)O[C@@H]1[C@@H](O)CO (stereo partly shown)
2. CCCCCCCCCCCCOC1=C(OCC(O)CO)[C@@H]([C@@H](O)CO)OC1=O (stereo partly shown)
3. CCCCCCCCCCOC1=C(OCC(O)CO)[C@@H]([C@@H](O)CO)OC1=O (stereo partly shown) [compound 10, 2-O-decyl-3-O-(2,3-dihydroxypropyl)-AsA]

["−2.2", "−0.7", 1.3]

----------
Give measured viability at 72 h, 100 µM for each item. Keep answers brief.
test: Cell viability of B16 melanoma 4A5 cells; assay type: cell-based, murine; conditions: mouse, 100 µM, B16 4A5 cells
Please give the number followed by its unit.

Worked set:
Molecule	viability at 72 h, 100 µM
CCCCCCCCCCCCCCOC1=C(OCC(O)CO)[C@@H]([C@@H](O)CO)OC1=O (stereo partly drawn) [compound 14]	21%
O=C1O[C@H]([C@@H](O)CO)C(O)=C1OCC(O)CO (stereo partly drawn) [compound 15, 2-O-(2,3-dihydroxypropyl)-AsA]	101%
CCOC1=C(OCC(O)CO)C(=O)O[C@@H]1[C@@H](O)CO (stereo partly drawn) [compound 16, 2-O-(2,3-dihydroxypropyl)-3-O-ethyl-AsA]	105%
CCCCCCCCCCOC1=C(OCC(O)CO)C(=O)O[C@@H]1[C@@H](O)CO (stereo partly drawn) [compound 24, 3-O-decyl-2-O-(2,3-dihydroxypropyl)-AsA]	34.3%
CCCCCCCOC1=C(OCC(O)CO)C(=O)O[C@@H]1[C@@H](O)CO (stereo partly drawn) [compound 21, 2-O-(2,3-dihydroxypropyl)-3-O-heptyl-AsA]	86.3%
CCCCCCCCCCCCCCOC1=C(OCC(O)CO)C(=O)O[C@@H]1[C@@H](O)CO (stereo partly drawn) [compound 28]	18.1%
CCCCOC1=C(OCC(O)CO)C(=O)O[C@@H]1[C@@H](O)CO (stereo partly drawn) [compound 18, 3-O-butyl-2-O-(2,3-dihydroxypropyl)-AsA]	99.8%
CCCCCCCCCCCCCOC1=C(OCC(O)CO)C(=O)O[C@@H]1[C@@H](O)CO (stereo partly drawn) [compound 27]	21%
CCCCCCCCCCCOC1=C(OCC(O)CO)[C@@H]([C@@H](O)CO)OC1=O (stereo partly drawn) [compound 11]	25.8%
CCCCCCCCCCCCCOC1=C(OCC(O)CO)[C@@H]([C@@H](O)CO)OC1=O (stereo partly drawn) [compound 13]	23.5%

Can you give me viability at 72 h, 100 µM for all of these, one by one?
1. CCCCCCCCCCCOC1=C(OCC(O)CO)C(=O)O[C@@H]1[C@@H](O)CO (stereo partly drawn) [compound 25]
2. CCCOC1=C(OCC(O)CO)C(=O)O[C@@H]1[C@@H](O)CO (stereo partly drawn) [compound 17, 2-O-(2,3-dihydroxypropyl)-3-O-propyl-AsA]
3. CCCCCCCCCCOC1=C(OCC(O)CO)[C@@H]([C@@H](O)CO)OC1=O (stereo partly drawn) [compound 10, 2-O-decyl-3-O-(2,3-dihydroxypropyl)-AsA]
4. CCCOC1=C(OCC(O)CO)[C@@H]([C@@H](O)CO)OC1=O (stereo partly drawn) [compound 3, 3-O-(2,3-dihydroxypropyl)-2-O-propyl-AsA]
5. CCCCCCCCCCCCOC1=C(OCC(O)CO)[C@@H]([C@@H](O)CO)OC1=O (stereo partly drawn) [compound 12]

1: 24%; 2: 98.4%; 3: 27.9%; 4: 102%; 5: 24.6%

Can you give me viability at 72 h, 100 µM for all of these, one by one?
1. CCCCCCCCOC1=C(OCC(O)CO)[C@@H]([C@@H](O)CO)OC1=O (stereo partly drawn) [compound 8, 3-O-(2,3-dihydroxypropyl)-2-O-octyl-AsA]
2. CCCCCCCOC1=C(OCC(O)CO)[C@@H]([C@@H](O)CO)OC1=O (stereo partly drawn) [compound 7, 3-O-(2,3-dihydroxypropyl)-2-O-heptyl-AsA]
3. CCCCCCCCOC1=C(OCC(O)CO)C(=O)O[C@@H]1[C@@H](O)CO (stereo partly drawn) [compound 22, 2-O-(2,3-dihydroxypropyl)-3-O-octyl-AsA]
4. CCCCCCCCCOC1=C(OCC(O)CO)C(=O)O[C@@H]1[C@@H](O)CO (stereo partly drawn) [compound 23, 2-O-(2,3-dihydroxypropyl)-3-O-nonyl-AsA]
5. CCCCCOC1=C(OCC(O)CO)[C@@H]([C@@H](O)CO)OC1=O (stereo partly drawn) [compound 5, 3-O-(2,3-dihydroxypropyl)-2-O-pentyl-AsA]
6. OC[C@H]1O[C@@H](Oc2ccc(O)cc2)[C@H](O)[C@@H](O)[C@@H]1O [Arbutin, reference compound]

1. 80%
2. 79.7%
3. 83%
4. 60.7%
5. 118%
6. 92.2%

Can you give me viability at 72 h, 100 µM for all of these, one by one?
1. O=C1O[C@H]([C@@H](O)CO)C(OCC(O)CO)=C1O (stereo partly drawn) [compound 1, 3-O-(2,3-dihydroxypropyl)-AsA]
2. CCCCCOC1=C(OCC(O)CO)C(=O)O[C@@H]1[C@@H](O)CO (stereo partly drawn) [compound 19, 2-O-(2,3-dihydroxypropyl)-3-O-pentyl-AsA]
3. CCCCCCCCCCCCOC1=C(OCC(O)CO)C(=O)O[C@@H]1[C@@H](O)CO (stereo partly drawn) [compound 26]
4. CCCCOC1=C(OCC(O)CO)[C@@H]([C@@H](O)CO)OC1=O (stereo partly drawn) [compound 4, 2-O-butyl-3-O-(2,3-dihydroxypropyl)-AsA]
5. O=C1O[C@H]([C@H](O)CO)C(O)=C1O [Erythrobic acid, reference compound]
6. CCOC1=C(OCC(O)CO)[C@@H]([C@@H](O)CO)OC1=O (stereo partly drawn) [compound 2, 3-O-(2,3-dihydroxypropyl)-2-O-ethyl-AsA]

1: 100%; 2: 86.7%; 3: 24.3%; 4: 94.5%; 5: 98.7%; 6: 101%

----------
tested on: tyrosinase from mushroom; assay: Mushroom tyrosinase activity; assay type: biochemical; settings: Substrate: L-Tyrosine, 100 µM
Assay endpoint: Inhibition (%) of mushroom tyrosinase
Give bare numbers, in %.

Worked set:
Compound	Target under test	Unit	Inhibition (%) of mushroom tyrosinase
CCCCCCCCCOC1=C(OCC(O)CO)[C@@H]([C@@H](O)CO)OC1=O (some centres unmarked) [compound 9, 3-O-(2,3-dihydroxypropyl)-2-O-nonyl-AsA]	tyrosinase from mushroom	%	−1.2
CCCCCCCOC1=C(OCC(O)CO)[C@@H]([C@@H](O)CO)OC1=O (some centres unmarked) [compound 7, 3-O-(2,3-dihydroxypropyl)-2-O-heptyl-AsA]	tyrosinase from mushroom	%	1.0
CCCCCCOC1=C(OCC(O)CO)C(=O)O[C@@H]1[C@@H](O)CO (some centres unmarked) [compound 20, 2-O-(2,3-dihydroxypropyl)-3-O-hexyl-AsA]	tyrosinase from mushroom	%	−6.1
CCCCCCCOC1=C(OCC(O)CO)C(=O)O[C@@H]1[C@@H](O)CO (some centres unmarked) [compound 21, 2-O-(2,3-dihydroxypropyl)-3-O-heptyl-AsA]	tyrosinase from mushroom	%	−9.8
CCCCCCOC1=C(OCC(O)CO)[C@@H]([C@@H](O)CO)OC1=O (some centres unmarked) [compound 6, 3-O-(2,3-dihydroxypropyl)-2-O-hexyl-AsA]	tyrosinase from mushroom	%	0.9
CCCCCCCCOC1=C(OCC(O)CO)[C@@H]([C@@H](O)CO)OC1=O (some centres unmarked) [compound 8, 3-O-(2,3-dihydroxypropyl)-2-O-octyl-AsA]	tyrosinase from mushroom	%	−0.6
CCCCCCCCOC1=C(OCC(O)CO)C(=O)O[C@@H]1[C@@H](O)CO (some centres unmarked) [compound 22, 2-O-(2,3-dihydroxypropyl)-3-O-octyl-AsA]	tyrosinase from mushroom	%	−14.4

Now take the following compound into account.
Please look up its Inhibition (%) of mushroom tyrosinase: CCCCCCCCCOC1=C(OCC(O)CO)C(=O)O[C@@H]1[C@@H](O)CO (some centres unmarked) [compound 23, 2-O-(2,3-dihydroxypropyl)-3-O-nonyl-AsA] −2.6
